Reported Ratio IC50 values follow for various molecules
Organism: Homo sapiens
test_summary: Selectivity ratio of IC50 for human full length PI3Kgamma to IC50 for human full length PI3Kdelta catalytic subunit/p85alpha
The answer should be a number; do not append a unit.

Example results:
# molecular_string, Ratio IC50
measured = [
    ("C[C@H](Nc1nc(N)nc(N)c1C#N)c1nc2cccc(Cl)c2c(=O)n1-c1cc(Cl)cc(C(F)F)c1", 220),
    ("C[C@H](Nc1ncnc(N)c1C#Cc1ccccc1)c1nc2cccc(Cl)c2c(=O)n1-c1ccccc1", 320),
    ("C[C@H](Nc1nc(N)nc(N)c1C#N)c1nc2cccc(Cl)c2c(=O)n1-c1cccc(C(F)F)c1", 210),
    ("C[C@H](Nc1nc(N)nc(N)c1C#N)c1nc2cccc(Cl)c2c(=O)n1-c1cccc(CC(F)F)c1", 120),
    ("C#Cc1c(N)ncnc1N[C@@H](C)c1nc2cccc(Cl)c2c(=O)n1-c1ccccc1", 1900),
    ("C[C@H](Nc1ncnc(N)c1C#Cc1cnccn1)c1nc2cccc(Cl)c2c(=O)n1-c1ccccc1", 512),
    ("C[C@H](Nc1ncnc(N)c1C#Cc1ccc(F)cn1)c1nc2cccc(Cl)c2c(=O)n1-c1ccccc1", 470),
]

Kindly consider the entry below.
GET /value?item= `COc1cccc(-n2c([C@H](C)Nc3nc(N)nc(N)c3C#N)nc3cccc(Cl)c3c2=O)c1` &field=Ratio IC50 returns 70

###

test_summary: Oral bioavailability in beagle dog at 5 mg/kg administered through gavage measured after 24 hrs by LC/MS/MS analysis
Format: ADME, organism-based, Canis lupus familiaris
reported_conditions: in vivo
observed_property: bioavailability
// return the numeric value with its unit appended

Lookup result for `C[C@H](Nc1nc(N)nc(N)c1C#N)c1nc2cccc(F)c2c(=O)n1-c1cc(F)cc(F)c1` ; measured bioavailability: 100%

###

Organism: Homo sapiens
test_summary: Selectivity ratio of IC50 for human full length PI3Kgamma to IC50 for human full length PI3Kdelta catalytic subunit/p85alpha
Each record's class is read off its Ratio IC50 using these ranges: group A: < 70; group B: ≥ 70 and < 200; group C: ≥ 200

Solved entries (count: 8):
# molecular_string, category
records = [
    ("C[C@H](Nc1nc(N)nc(N)c1C#N)c1nc2ccc(F)cc2c(=O)n1-c1cc(F)cc(F)c1", "group B"),
    ("COc1c(N)ncnc1N[C@@H](C)c1nc2cccc(Cl)c2c(=O)n1-c1ccccc1", "group C"),
    ("Cc1c(N)ncnc1N[C@@H](C)c1nc2cccc(Cl)c2c(=O)n1-c1ccccc1", "group C"),
    ("C[C@H](Nc1nc(N)nc(N)c1C#N)c1nc2ccc(F)c(Cl)c2c(=O)n1-c1cc(F)cc(F)c1", "group B"),
    ("C[C@H](Nc1ncnc(N)c1C#Cc1cccnc1)c1nc2cccc(Cl)c2c(=O)n1-c1ccccc1", "group B"),
    ("C[C@H](Nc1nc(N)nc(N)c1C#N)c1nc2cccc(Cl)c2c(=O)n1-c1ccccc1", "group A"),
    ("C[C@H](Nc1nc(N)nc(N)c1C#N)c1nc2cccc(F)c2c(=O)n1-c1cc(F)cc(F)c1", "group B"),
    ("C[C@H](Nc1nc(N)nc(N)c1C#N)c1nc2cccc(Cl)c2c(=O)n1-c1cccc(F)c1", "group B"),
]

Query :: Which Ratio IC50 band matches `C[C@H](Nc1nc(N)nc(N)c1C#N)c1nc2cccc(Cl)c2c(=O)n1-c1cc(F)cc(F)c1` ?
Result :: group B

Query :: Lab note: which band did `C[C@H](Nc1nc(N)nc(N)c1C#N)c1nc2cccc(Cl)c2c(=O)n1-c1cccc(C(F)(F)F)c1` land in?
Result :: group A

###

system_under_test: PI3-kinase p110-delta/p85-alpha (Homo sapiens, UniProt O00329)
Sequence (P27986 whole entry): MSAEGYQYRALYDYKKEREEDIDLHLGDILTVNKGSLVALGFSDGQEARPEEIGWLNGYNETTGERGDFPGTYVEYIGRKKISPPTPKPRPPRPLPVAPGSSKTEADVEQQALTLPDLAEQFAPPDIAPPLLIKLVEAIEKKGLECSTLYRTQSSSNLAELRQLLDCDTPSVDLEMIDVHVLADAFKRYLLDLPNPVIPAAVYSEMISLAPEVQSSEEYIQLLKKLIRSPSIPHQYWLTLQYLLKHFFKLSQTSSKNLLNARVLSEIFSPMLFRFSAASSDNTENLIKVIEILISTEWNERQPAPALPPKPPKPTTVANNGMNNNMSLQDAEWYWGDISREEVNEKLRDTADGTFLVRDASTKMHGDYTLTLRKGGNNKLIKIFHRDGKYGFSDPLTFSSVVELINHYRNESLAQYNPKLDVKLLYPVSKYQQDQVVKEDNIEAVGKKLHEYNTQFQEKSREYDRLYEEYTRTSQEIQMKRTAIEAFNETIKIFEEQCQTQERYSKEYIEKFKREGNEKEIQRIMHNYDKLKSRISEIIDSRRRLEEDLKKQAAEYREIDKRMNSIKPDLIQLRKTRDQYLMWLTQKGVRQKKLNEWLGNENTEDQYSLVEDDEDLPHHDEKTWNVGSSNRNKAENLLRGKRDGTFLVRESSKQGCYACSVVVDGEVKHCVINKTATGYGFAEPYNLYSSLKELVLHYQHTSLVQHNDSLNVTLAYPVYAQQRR
Sequence (O00329 whole entry): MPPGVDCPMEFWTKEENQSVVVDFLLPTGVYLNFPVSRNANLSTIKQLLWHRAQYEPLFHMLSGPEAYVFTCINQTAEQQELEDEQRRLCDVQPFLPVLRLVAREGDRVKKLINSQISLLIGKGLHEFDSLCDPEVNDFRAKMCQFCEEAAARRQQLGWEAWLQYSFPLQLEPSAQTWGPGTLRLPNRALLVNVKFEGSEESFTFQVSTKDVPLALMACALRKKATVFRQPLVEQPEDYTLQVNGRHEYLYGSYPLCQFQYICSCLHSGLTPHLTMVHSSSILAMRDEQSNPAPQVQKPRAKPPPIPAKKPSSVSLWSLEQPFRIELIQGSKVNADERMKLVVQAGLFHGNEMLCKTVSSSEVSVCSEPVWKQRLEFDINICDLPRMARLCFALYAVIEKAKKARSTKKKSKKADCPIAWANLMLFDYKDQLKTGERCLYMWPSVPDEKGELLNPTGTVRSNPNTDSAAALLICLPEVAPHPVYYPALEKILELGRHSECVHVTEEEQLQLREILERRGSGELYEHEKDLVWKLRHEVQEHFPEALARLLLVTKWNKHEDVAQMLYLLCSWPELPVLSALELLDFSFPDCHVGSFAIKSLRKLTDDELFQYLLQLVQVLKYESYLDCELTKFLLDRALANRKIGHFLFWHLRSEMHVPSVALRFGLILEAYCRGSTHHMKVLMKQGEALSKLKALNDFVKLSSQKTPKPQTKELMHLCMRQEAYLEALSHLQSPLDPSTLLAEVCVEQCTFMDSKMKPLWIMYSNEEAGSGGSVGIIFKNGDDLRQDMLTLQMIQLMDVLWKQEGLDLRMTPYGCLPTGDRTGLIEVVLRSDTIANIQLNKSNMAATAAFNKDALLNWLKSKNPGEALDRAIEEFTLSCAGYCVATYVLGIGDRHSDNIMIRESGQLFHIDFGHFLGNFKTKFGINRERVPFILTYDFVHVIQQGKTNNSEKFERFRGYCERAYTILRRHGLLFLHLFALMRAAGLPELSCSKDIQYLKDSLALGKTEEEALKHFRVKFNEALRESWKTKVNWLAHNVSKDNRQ
test_summary: Inhibition human full length PI3Kdelta catalytic subunit/p85alpha assessed as formation of PIP3 after 30 mins by europium labeled GRP-based TR-FRET assay
IC50 under 2 nM gets True, anything at or over 2 nM gets False.

Consider the following illustrative entries.
# molecular_string, category
rows = [
    ("C[C@H](Nc1nc(N)nc(N)c1C#N)c1nc2ccc(F)c(Cl)c2c(=O)n1-c1cc(F)cc(F)c1", "False"),
    ("C[C@H](Nc1ncnc(N)c1C(F)(F)F)c1nc2cccc(Cl)c2c(=O)n1-c1ccccc1", "True"),
    ("C[C@H](Nc1ncnc(N)c1C#Cc1cn[nH]c1)c1nc2cccc(Cl)c2c(=O)n1-c1ccccc1", "True"),
    ("C[C@H](Nc1ncnc(N)c1C(N)=O)c1nc2cccc(Cl)c2c(=O)n1-c1ccccc1", "False"),
    ("C[C@H](Nc1ncnc(N)c1C#Cc1ccccc1)c1nc2cccc(Cl)c2c(=O)n1-c1ccccc1", "True"),
]

Query :: Given the entry `C[C@H](Nc1nc(N)nc(N)c1C#N)c1nc2cccc(Cl)c2c(=O)n1-c1cccc(CC(F)F)c1` , would its reported IC50 be below 2 nM?
Result :: True

Query :: Hello, is IC50 of the following molecule strictly smaller than 2 nM? `C[C@H](Nc1ncnc(N)c1C#Cc1ccc(F)cn1)c1nc2cccc(Cl)c2c(=O)n1-c1ccccc1`
Result :: True

Query :: Please check: IC50 for `C[C@H](Nc1nc(Cl)nc(N)c1C#N)c1nc2cccc(Cl)c2c(=O)n1-c1ccccc1` , strictly under 2 nM or not?
Result :: False

Query :: Please indicate whether the reported IC50 of `C[C@H](Nc1nc(N)nc(N)c1C#N)c1nc2cccc(Cl)c2c(=O)n1-c1cccc(Cl)c1` is strictly below 2 nM.
Result :: True

Query :: Take the molecule `C[C@H](Nc1nc(N)nc(N)c1C#N)c1nc2cccc(Cl)c2c(=O)n1-c1cccc(C(F)(F)F)c1` and say whether its IC50 is less than 2 nM.
Result :: False

###

Species: Homo sapiens
test_summary: Selectivity ratio of IC50 for human recombinant PI3Kbeta to IC50 for human full length PI3Kdelta catalytic subunit/p85alpha
observed_property: Ratio IC50
Lab note: jot the number down without any unit.

# molecular_string, result_value
data = [
    ("C[C@H](Nc1nc(N)nc(N)c1C#N)c1nc2cccc(Cl)c2c(=O)n1-c1cccc(C(F)(F)F)c1", 230),
    ("Cc1nc(N)nc(N[C@@H](C)c2nc3cccc(Cl)c3c(=O)n2-c2ccccc2)c1C#N", 100),
    ("C[C@H](Nc1nc(N)nc(N)c1C#N)c1nc2c(F)cccc2c(=O)n1-c1cc(F)cc(F)c1", 920),
    ("C[C@H](Nc1nc(N)nc(N)c1C#N)c1nc2ccc(F)cc2c(=O)n1-c1cc(F)cc(F)c1", 520),
]

The reported Ratio IC50 of the molecule `C[C@H](Nc1ncnc(N)c1C(N)=O)c1nc2cccc(Cl)c2c(=O)n1-c1ccccc1` was 310

Lab note: measured Ratio IC50 of `C[C@H](Nc1ncncc1C#N)c1nc2cccc(Cl)c2c(=O)n1-c1ccccc1` was 460

What the record says about `C[C@H](Nc1ncnc(N)c1C#Cc1cnccn1)c1nc2cccc(Cl)c2c(=O)n1-c1ccccc1` : Ratio IC50 is 52

Looking up `C[C@H](Nc1ncnc(N)c1C#Cc1cn[nH]c1)c1nc2cccc(Cl)c2c(=O)n1-c1ccccc1` , I found its Ratio IC50 recorded as 260

###

Here, each record is paired with measured Ratio IC50 data.
Species on record: Homo sapiens
test_summary: Selectivity ratio of IC50 for human full length PI3Kgamma to IC50 for human full length PI3Kdelta catalytic subunit/p85alpha

Record excerpt, results attached:
# molecular_string, result_value
data = [
    ("C[C@H](Nc1ncnc(N)c1C#Cc1cccnn1)c1nc2cccc(Cl)c2c(=O)n1-c1ccccc1", "> 42"),
    ("C[C@H](Nc1nc(N)nc(N)c1C#N)c1nc2cccc(Cl)c2c(=O)n1-c1cc(C#N)cc(C#N)c1", "> 68"),
]

The compound identified as `C[C@H](Nc1cc(N)ncn1)c1nc2cccc(Cl)c2c(=O)n1-c1ccccc1` registered its Ratio IC50 at > 100

###

system_under_test: PI3-kinase p110-delta/p85-alpha (Homo sapiens)
test_summary: Inhibition human full length PI3Kdelta catalytic subunit/p85alpha assessed as formation of PIP3 after 30 mins by europium labeled GRP-based TR-FRET assay
pIC50: −log10 of the molar value.
# binarize pIC50: threshold 9 inclusive, high side true, low side false

Examples from the recorded data:
# molecular_string, category
rows = [
    ("C#Cc1c(N)ncnc1N[C@@H](C)c1nc2cccc(Cl)c2c(=O)n1-c1ccccc1", "true"),
    ("C[C@H](Nc1nc(N)nc(N)c1C#N)c1nc2c(F)cccc2c(=O)n1-c1cc(F)cc(F)c1", "false"),
]

Query :: Test whether the compound `Cc1c(N)ncnc1N[C@@H](C)c1nc2cccc(Cl)c2c(=O)n1-c1ccccc1` records pIC50 of 9 or higher.
Result :: false

Query :: Reported pIC50 reaches at least 9 for `C[C@H](Nc1nc(N)nc(N)c1C#N)c1nc2cccc(Cl)c2c(=O)n1-c1ccccc1` ?
Result :: true

Query :: # check: pIC50 of `C[C@H](Nc1nc(N)nc(N)c1C#N)c1nc2cccc(Cl)c2c(=O)n1-c1cc(F)cc(F)c1` is greater than or equal to 9
Result :: true

Query :: hey, is pIC50 for this one >= 9? `C[C@H](Nc1nc(N)nc(N)c1C#N)c1nc2c(C#N)cccc2c(=O)n1-c1cc(F)cc(F)c1`
Result :: false

Query :: Does the reported pIC50 for `C[C@H](Nc1ncnc(N)c1C#Cc1cccnn1)c1nc2cccc(Cl)c2c(=O)n1-c1ccccc1` fall at or above the 9 mark?
Result :: false

Query :: Tell me whether pIC50 is at least 9 here: `Cc1nc(N)nc(N[C@@H](C)c2nc3cccc(Cl)c3c(=O)n2-c2ccccc2)c1C#N`
Result :: true
